Value source: ChEMBL document CHEMBL5303573

Test: The drug is tested on Bacteroides fragilis strain: ATCC43859 for biotransformation. The drug concentrations were measured before and after a 12-h incubation by liquid-chromatography-coupled mass spectrometry (LC–MS)
Conditions: 2 µM
readout: Bacterial Biotransformation

**Q:** Read off the recorded Bacterial Biotransformation for CC(CN(C)C)CN1c2ccccc2CCc2ccccc21.O=C(O)/C=C\C(=O)O (stereo not drawn) [TRIMIPRAMINE MALEATE]
**A:** Compound NOT metabolized

**Q:** Entry `COc1ccc2c(c1OC)C(=O)O[C@@H]2[C@H]1c2c(cc3c(c2OC)OCO3)CCN1C` needs its Bacterial Biotransformation filled in; supply it.
**A:** Compound NOT metabolized

**Q:** Return the recorded Bacterial Biotransformation value; entry: `O=C(O)CCc1nc(-c2ccccc2)c(-c2ccccc2)o1`
**A:** Compound metabolized

**Q:** Look up Bacterial Biotransformation of `Clc1ccc(Cn2c(CN3CCCC3)nc3ccccc32)cc1` and report it.
**A:** Compound NOT metabolized

**Q:** Kindly indicate its recorded Bacterial Biotransformation. Item: Cc1ccccc1N1C(=O)c2cc(S(N)(=O)=O)c(Cl)cc2NC1C (stereo not drawn)
**A:** Compound NOT metabolized

***
**Q:** Input CC(=O)O[C@]1(C(C)=O)CC[C@H]2[C@@H]3C=C(Cl)C4=CC(=O)[C@@H]5C[C@@H]5[C@]4(C)[C@H]3CC[C@@]21C [CYPROTERONE ACETATE] , output reported Bacterial Biotransformation.
**A:** Compound metabolized

**Q:** Quote Bacterial Biotransformation reported for NC(CO)(CO)CO.O=C(c1ccccc1)c1ccc2n1CCC2C(=O)O (stereo not drawn) please.
**A:** Compound metabolized

**Q:** Identify measured Bacterial Biotransformation corresponding to COc1cc2nc(N(C)CCCNC(=O)C3CCCO3)nc(N)c2cc1OC (stereo not drawn)
**A:** Compound NOT metabolized

====

Assay: The drug is tested on Bacteroides coprophilus strain: DSM18228 for biotransformation. The drug concentrations were measured before and after a 12-h incubation by liquid-chromatography-coupled mass spectrometry (LC–MS)
Conditions: 2 µM
readout: Bacterial Biotransformation

**Q:** Quote Bacterial Biotransformation reported for C#C[C@]1(OC(C)=O)CC[C@H]2[C@@H]3CCC4=CC(=O)CC[C@@H]4[C@H]3CC[C@@]21C [NORETHINDRONE ACETATE] please.
**A:** Compound metabolized

**Q:** // fetch Bacterial Biotransformation given entry `COc1cc2c(c(OC)c1OC)-c1ccc(OC)c(=O)cc1[C@@H](NC(C)=O)CC2`
**A:** Compound NOT metabolized

**Q:** Give me measured Bacterial Biotransformation, please, for this compound: CC(C)C[C@H]1C(=O)N2CCC[C@H]2[C@]2(O)O[C@](NC(=O)[C@@H]3C=C4c5cccc6[nH]c(Br)c(c56)C[C@H]4N(C)C3)(C(C)C)C(=O)N12.CS(=O)(=O)O [BROMOCRIPTINE MESYLATE]
**A:** Compound metabolized

**Q:** Quick one: give measured Bacterial Biotransformation for CN(C)CCc1c[nH]c2ccc(Cn3cncn3)cc12.O=C(O)c1ccccc1 [RIZATRIPTAN BENZOATE]
**A:** Compound metabolized

More entries:
**Q:** Provide only the value of recorded Bacterial Biotransformation for `Cc1ccc(/C(=C\CN2CCCC2)c2ccccn2)cc1`
**A:** Compound NOT metabolized

**Q:** For COC(=O)C1=C(C)NC(C)=C(C(=O)OC(C)C)C1c1cccc2nonc12 (centres undefined) , write its Bacterial Biotransformation.
**A:** Compound NOT metabolized

**Q:** Fill in reported Bacterial Biotransformation for this entry: `O=C1CC2(CCCC2)CC(=O)N1CCCCN1CCN(c2ncccn2)CC1`
**A:** Compound NOT metabolized

**Q:** Answer with the recorded Bacterial Biotransformation of CC(N)C12CC3CC(CC(C3)C1)C2 (centres undefined) only.
**A:** Compound NOT metabolized

**Q:** Using known records, supply Bacterial Biotransformation for CCN1CCCC1CNC(=O)c1cc(S(=O)(=O)CC)c(N)cc1OC (centres undefined) [AMISULPRIDE]
**A:** Compound NOT metabolized
